molecular target: Histone deacetylase 1 (Homo sapiens, UniProt Q13547)
Sequence (Q13547 whole entry): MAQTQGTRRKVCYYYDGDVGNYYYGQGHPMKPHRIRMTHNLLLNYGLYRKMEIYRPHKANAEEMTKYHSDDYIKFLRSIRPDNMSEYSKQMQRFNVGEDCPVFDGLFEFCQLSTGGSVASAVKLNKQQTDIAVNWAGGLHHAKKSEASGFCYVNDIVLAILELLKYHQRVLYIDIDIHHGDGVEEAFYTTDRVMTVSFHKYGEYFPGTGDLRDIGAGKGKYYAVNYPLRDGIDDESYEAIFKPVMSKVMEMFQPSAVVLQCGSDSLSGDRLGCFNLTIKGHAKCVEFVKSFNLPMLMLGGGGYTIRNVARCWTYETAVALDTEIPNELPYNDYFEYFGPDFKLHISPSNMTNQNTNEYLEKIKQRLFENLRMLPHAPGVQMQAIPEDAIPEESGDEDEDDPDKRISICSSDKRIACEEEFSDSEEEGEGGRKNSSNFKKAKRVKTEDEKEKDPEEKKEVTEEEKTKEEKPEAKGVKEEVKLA
Measured pIC50, listed per entry for reference.
For clarity, pIC50 is expressed as the negative log10 of concentration in mol/L.

Examples from the recorded data:
{"MOLECULE": "O=C(NC1C2CC3CC(C2)CC1C3)c1cn(CCCCCCCS)c2ccccc12 (stereo not given)", "STUDY_TARGET": "Histone deacetylase 1 (Homo sapiens, UniProt Q13547)", "pIC50": 6.73}
{"MOLECULE": "O=C(CCCCCCn1cc(C(=O)Nc2ccc(Cl)cc2Cl)c2ccccc21)NO", "STUDY_TARGET": "Histone deacetylase 1 (Homo sapiens, UniProt Q13547)", "pIC50": 8.60}

Identify measured pIC50 obtained with Histone deacetylase 1 (Homo sapiens, UniProt Q13547) for O=C(CCCCCn1cc(C(=O)NC2C3CC4CC(C3)CC2C4)c2ccccc21)NO (stereo not given) .
7.17

For Histone deacetylase 1 (Homo sapiens, UniProt Q13547), give the measured pIC50 of the entry O=C(CCCCCCn1cc(C(=O)NC2CCCCC2)c2ccccc21)NO
8.81
